Data credit: patent US10961222B2

Target: IDH2-R140Q mutant enzyme (Homo sapiens, UniProt P48735, R140Q)
Construct: purchased BPS 71100-1
Experiment: Inhibitory activity of compounds on IDH2-R140Q enzyme in vitro (diaphorase/resazurin fluorescence)
Format: biochemical
Details: IDH2-R140Q, pre-incubated 16 h with enzyme and NADPH, reaction 1 h with α-ketoglutarate; read-out: R140Q IC50
Method: Instrument: SpectraMax M3 Multi-Mode Microplate Reader, purchased from Molecular Devices. […] Fluorescence values of two wells were obtained and averaged and the activity rate (Activity %) was calculated. […]
pIC50: −log10 of the molar value.
Reported pIC50 values for the following molecules.
MEASURED_PROPERTY: pIC50

INSERT INTO results (molecule, tested_on, endpoint_value) VALUES
  ('FC(F)(F)c1cc(Nc2nc(-c3cccc(C(F)(F)F)n3)nc(N3CCCC(C(F)(F)F)C3)n2)ccn1 (stereo not shown) [Example 7]', 'IDH2-R140Q mutant enzyme (Homo sapiens, UniProt P48735, R140Q)', 7.70),
  ('FC1CCCN(c2nc(Nc3ccnc(C(F)(F)F)c3)nc(-c3cccc(C(F)(F)F)n3)n2)C1 (stereo not shown) [Example 11]', 'IDH2-R140Q mutant enzyme (Homo sapiens, UniProt P48735, R140Q)', 7.85),
  ('CC(C)(C)ONc1nc(Nc2ccnc(C(F)(F)F)c2)nc(-c2cccc(C(F)(F)F)n2)n1 [Example 28]', 'IDH2-R140Q mutant enzyme (Homo sapiens, UniProt P48735, R140Q)', 7.91),
  ('OC1(C(F)(F)F)CN(c2nc(Nc3ccnc(C(F)(F)F)c3)nc(-c3cccc(C(F)(F)F)n3)n2)C1 [Example 34]', 'IDH2-R140Q mutant enzyme (Homo sapiens, UniProt P48735, R140Q)', 7.85);

====

Target: IDH2-R140Q mutant enzyme (Homo sapiens, UniProt P48735, R140Q)
Construct: purchased BPS 71100-1
Test: Inhibitory activity of compounds on IDH2-R140Q enzyme in vitro (diaphorase/resazurin fluorescence)
Format: biochemical
Conditions: IDH2-R140Q, pre-incubated 16 h with enzyme and NADPH, reaction 1 h with α-ketoglutarate; read-out: R140Q IC50
Reported IC50 values for the following compounds.
MEASURED_PROPERTY: IC50 (nM)

INSERT INTO measurements (compound, endpoint_value) VALUES
  ('CC(Oc1nc(Nc2ccnc(C(F)(F)F)c2)nc(-c2cccc(C(F)(F)F)n2)n1)C(F)(F)F (stereo not shown) [Example 44]', 8.8),
  ('OC1(C(F)(F)F)CCN(c2nc(Nc3ccnc(C(F)(F)F)c3)nc(-c3cccc(C(F)(F)F)n3)n2)CC1 [Example 38]', 25.2),
  ('OC1CCCN(c2nc(Nc3ccnc(C(F)(F)F)c3)nc(-c3cccc(C(F)(F)F)n3)n2)C1 (stereo not shown) [Example 3]', 22),
  ('CC1(O)CN(c2nc(Nc3ccnc(C(F)(F)F)c3)nc(-c3cccc(C(F)(F)F)n3)n2)C1 [Example 33]', 29.2),
  ('FC1(F)CCCN(c2nc(Nc3ccnc(C(F)(F)F)c3)nc(-c3cccc(C(F)(F)F)n3)n2)C1 [Example 2]', 23),
  ('OC1CCCN(c2nc(Nc3ccnc(C(F)(F)F)c3)nc(-c3cccc(C(F)(F)F)n3)n2)C1 (stereo in doubt) [Example 9]', 22),
  ('O[C@@H]1CCN(c2nc(Nc3ccnc(C(F)(F)F)c3)nc(-c3cccc(C(F)(F)F)n3)n2)C1 [Example 17]', 23);

====

Biological target: IDH2-R140Q mutant enzyme (Homo sapiens, UniProt P48735, R140Q)
Construct: purchased BPS 71100-1
Test: Inhibitory activity of compounds on IDH2-R140Q enzyme in vitro (diaphorase/resazurin fluorescence)
Type: biochemical
Conditions: R140Q IC50, IDH2-R140Q, pre-incubated 16 h with enzyme and NADPH, reaction 1 h with α-ketoglutarate
MEASURED_PROPERTY: IC50

INSERT INTO results (molecule, tested_on, measured_property, endpoint_value) VALUES
  ('CC(C)(O)CNc1nc(Nc2ccnc(C(F)(F)F)c2)nc(-c2cccc(C(F)(F)F)n2)n1 [AG-221, reference compound]', 'IDH2-R140Q mutant enzyme (Homo sapiens, UniProt P48735, R140Q)', 'IC50', '0.021 µM');

====

Target: IDH2-R140Q mutant enzyme (Homo sapiens, UniProt P48735, R140Q)
Construct: purchased BPS 71100-1
Assay: Inhibitory activity of compounds on IDH2-R140Q enzyme in vitro (diaphorase/resazurin fluorescence)
Assay type: biochemical
Conditions: IDH2-R140Q, pre-incubated 16 h with enzyme and NADPH, reaction 1 h with α-ketoglutarate; read-out: R140Q IC50
pIC50: −log10 of the molar value.
Reported pIC50 values for the following molecules.
MEASURED_PROPERTY: pIC50

INSERT INTO assay_data (molecule, tested_on, endpoint_value) VALUES
  ('CC(C)(O)C1CN(c2nc(Nc3ccnc(C(F)(F)F)c3)nc(-c3cccc(C(F)(F)F)n3)n2)C1', 'IDH2-R140Q mutant enzyme (Homo sapiens, UniProt P48735, R140Q)', 7.72),
  ('O[C@H]1CN(c2nc(Nc3ccnc(C(F)(F)F)c3)nc(-c3cccc(C(F)(F)F)n3)n2)C[C@@H]1F', 'IDH2-R140Q mutant enzyme (Homo sapiens, UniProt P48735, R140Q)', 7.52),
  ('N#CC1CCCN(c2nc(Nc3ccnc(C(F)(F)F)c3)nc(-c3cccc(C(F)(F)F)n3)n2)C1 (stereo not shown)', 'IDH2-R140Q mutant enzyme (Homo sapiens, UniProt P48735, R140Q)', 7.60),
  ('FC(F)(F)c1cc(Nc2nc(-c3cccc(C(F)(F)F)n3)nc(N3CCNCC3)n2)ccn1', 'IDH2-R140Q mutant enzyme (Homo sapiens, UniProt P48735, R140Q)', 7.60),
  ('CN(C)Nc1nc(Nc2ccnc(C(F)(F)F)c2)nc(-c2cccc(C(F)(F)F)n2)n1', 'IDH2-R140Q mutant enzyme (Homo sapiens, UniProt P48735, R140Q)', 8.24),
  ('OC1CN(c2nc(Nc3ccnc(C(F)(F)F)c3)nc(-c3cccc(C(F)(F)F)n3)n2)C1', 'IDH2-R140Q mutant enzyme (Homo sapiens, UniProt P48735, R140Q)', 7.58),
  ('O[C@H]1CCN(c2nc(Nc3ccnc(C(F)(F)F)c3)nc(-c3cccc(C(F)(F)F)n3)n2)C1', 'IDH2-R140Q mutant enzyme (Homo sapiens, UniProt P48735, R140Q)', 7.59);

====

Molecular target: U87-MG cell line of overexpressed mutant IDH2 (R140Q) (Homo sapiens, UniProt P48735, R140Q)
Construct: expressed in transfected cells
Experiment: Cell activity in vitro: 2-HG in culture supernatant of U87-MG (IDH2-R140Q) cells by LC-MS/MS
Type: cell-based
pIC50: −log10 of the molar value.
MEASURED_PROPERTY: pIC50

INSERT INTO assay_data (compound, endpoint_value) VALUES
  ('CC(C)(O)CNc1nc(Nc2ccnc(C(F)(F)F)c2)nc(-c2cccc(C(F)(F)F)n2)n1 [AG-221, reference compound]', 7.52);

====

Biological target: IDH2-R140Q mutant enzyme (Homo sapiens, UniProt P48735, R140Q)
Construct: purchased BPS 71100-1
Sequence (P48735 40-452 R140Q): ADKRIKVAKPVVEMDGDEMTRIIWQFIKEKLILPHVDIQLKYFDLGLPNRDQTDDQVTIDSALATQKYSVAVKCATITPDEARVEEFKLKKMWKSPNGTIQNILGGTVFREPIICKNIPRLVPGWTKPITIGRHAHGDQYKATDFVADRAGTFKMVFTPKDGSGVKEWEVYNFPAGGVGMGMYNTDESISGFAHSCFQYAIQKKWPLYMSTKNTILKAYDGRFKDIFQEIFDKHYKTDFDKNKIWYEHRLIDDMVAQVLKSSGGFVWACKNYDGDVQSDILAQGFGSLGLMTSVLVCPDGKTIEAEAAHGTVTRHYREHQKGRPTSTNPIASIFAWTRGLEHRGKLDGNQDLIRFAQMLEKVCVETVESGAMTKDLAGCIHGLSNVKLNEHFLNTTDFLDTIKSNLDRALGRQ
Experiment: Inhibitory activity of compounds on IDH2-R140Q enzyme in vitro (diaphorase/resazurin fluorescence)
Assay type: biochemical
Conditions: IDH2-R140Q, pre-incubated 16 h with enzyme and NADPH, reaction 1 h with α-ketoglutarate; read-out: R140Q IC50
Class key for IC50 values: 1 (below 0.01 µM), 2 (0.01 µM to below 0.02 µM), 3 (0.02 µM or more)

INSERT INTO measurements (compound, assigned_category) VALUES
  ('O[C@H]1CCCN(c2nc(Nc3ccnc(C(F)(F)F)c3)nc(-c3cccc(C(F)(F)F)n3)n2)C1', 2),
  ('FC(F)(F)c1cc(Nc2nc(OCC(F)(F)C(F)(F)F)nc(-c3cccc(C(F)(F)F)n3)n2)ccn1', 1),
  ('FC(F)(F)c1cc(Nc2nc(-c3cccc(C(F)(F)F)n3)nc(N3CCCCC3)n2)ccn1', 3),
  ('FC1(F)CCC(c2nc(Nc3ccnc(C(F)(F)F)c3)nc(-c3cccc(C(F)(F)F)n3)n2)CC1', 3),
  ('FC(F)(F)c1cc(Nc2nc(-c3cccc(C(F)(F)F)n3)nc(C3CCCCN3)n2)ccn1 (stereo not drawn)', 2),
  ('FC1(F)CC=C(c2nc(Nc3ccnc(C(F)(F)F)c3)nc(-c3cccc(C(F)(F)F)n3)n2)CC1', 2),
  ('OC1(C(F)(F)F)CCN(c2nc(Nc3ccnc(C(F)(F)F)c3)nc(-c3cccc(C(F)(F)F)n3)n2)CC1 [Example 21]', 3),
  ('FC1(F)CN(c2nc(Nc3ccnc(C(F)(F)F)c3)nc(-c3cccc(C(F)(F)F)n3)n2)C1', 1),
  ('FC(F)(F)c1cc(Nc2nc(-c3cccc(C(F)(F)F)n3)nc(N3CCOCC3)n2)ccn1', 2),
  ('N#C[C@@H]1CCN(c2nc(Nc3ccnc(C(F)(F)F)c3)nc(-c3cccc(C(F)(F)F)n3)n2)C1', 3),
  ('FC1(F)CCN(c2nc(Nc3ccnc(C(F)(F)F)c3)nc(-c3cccc(C(F)(F)F)n3)n2)C1', 2),
  ('N#C[C@H]1CCN(c2nc(Nc3ccnc(C(F)(F)F)c3)nc(-c3cccc(C(F)(F)F)n3)n2)C1', 2),
  ('FC(F)(F)COc1nc(Nc2ccnc(C(F)(F)F)c2)nc(-c2cccc(C(F)(F)F)n2)n1', 1),
  ('CC(C)ONc1nc(Nc2ccnc(C(F)(F)F)c2)nc(-c2cccc(C(F)(F)F)n2)n1', 2);
